// data source = patent US20070178531A1

- target.of.assay: T1, glutathione S-transferase (GST) (UniProt P08515 1-218 = GST)
- T1 construct: also called carrier protein GST
- assay.remarks: ELISA, Ab 0.250 µg/ml
Documented A450 across a set of binders
Report only the number, with the unit A450 understood.

{"columns": ["binder", "endpoint.unit", "numeric.result"],
 "data": [
  ["rabbit monoclonal anti-mouse/human Id3, clone #BCH-4/#16-1 (antibody, V domains shown, Rabbit IgG from a rabbit hybridoma; also called m/h Id3 MoAb 16-1) VH: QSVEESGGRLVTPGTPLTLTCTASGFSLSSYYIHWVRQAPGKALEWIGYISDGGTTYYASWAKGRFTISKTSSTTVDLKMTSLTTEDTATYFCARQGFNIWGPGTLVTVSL VL: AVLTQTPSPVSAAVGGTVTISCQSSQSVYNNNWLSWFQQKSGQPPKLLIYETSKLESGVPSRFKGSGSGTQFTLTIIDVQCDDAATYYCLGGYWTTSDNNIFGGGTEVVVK", "A450", 0.048]
]}

**Query** I have this binder here, rabbit monoclonal anti-mouse/human Id3, clone #BCH-4/#6-1 (antibody, V domains shown, Rabbit IgG from a rabbit hybridoma; also called m/h Id3 MoAb 6-1) VH: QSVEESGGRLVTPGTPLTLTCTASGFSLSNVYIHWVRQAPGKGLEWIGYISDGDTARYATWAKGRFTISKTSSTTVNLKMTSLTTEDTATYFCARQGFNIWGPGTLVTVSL VL: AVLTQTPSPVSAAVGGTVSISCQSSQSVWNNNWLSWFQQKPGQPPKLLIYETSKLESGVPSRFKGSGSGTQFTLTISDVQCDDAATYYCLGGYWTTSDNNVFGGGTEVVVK , and I need its recorded A450.
**Result** 0.051

**Query** I have this binder here, rabbit monoclonal anti-human Id3, clone #BCH-4/#3-3 (antibody, V domains shown, Rabbit IgG from a rabbit hybridoma; also called h Id3 MoAb 3-3) VH: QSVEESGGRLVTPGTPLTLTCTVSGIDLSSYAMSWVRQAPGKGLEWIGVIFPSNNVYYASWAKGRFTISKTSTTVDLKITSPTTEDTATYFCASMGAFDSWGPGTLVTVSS VL: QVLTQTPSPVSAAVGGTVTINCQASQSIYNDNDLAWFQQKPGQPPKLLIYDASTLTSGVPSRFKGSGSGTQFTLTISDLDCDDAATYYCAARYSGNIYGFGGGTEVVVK , and I need its recorded A450.
**Result** 0.048

**Query** I have this binder here, rabbit monoclonal anti-mouse/human Id3, clone #BCH-4/#42-1 (antibody, V domains shown, Rabbit IgG from a rabbit hybridoma; also called m/h Id3 MoAb 42-1) VH: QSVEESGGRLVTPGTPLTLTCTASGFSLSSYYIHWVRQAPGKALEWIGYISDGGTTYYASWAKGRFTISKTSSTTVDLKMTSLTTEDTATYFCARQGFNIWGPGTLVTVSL VL: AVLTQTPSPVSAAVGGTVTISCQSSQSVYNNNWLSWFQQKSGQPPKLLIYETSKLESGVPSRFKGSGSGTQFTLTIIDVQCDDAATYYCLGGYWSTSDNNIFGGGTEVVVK , and I need its recorded A450.
**Result** 0.051

**Query** I have this binder here, rabbit monoclonal anti-mouse/human Id3, clone #BCH-4/#17-3 (antibody, V domains shown, Rabbit IgG from a rabbit hybridoma; also called m/h Id3 MoAb 17-3; BCH-3/#17-3) VH: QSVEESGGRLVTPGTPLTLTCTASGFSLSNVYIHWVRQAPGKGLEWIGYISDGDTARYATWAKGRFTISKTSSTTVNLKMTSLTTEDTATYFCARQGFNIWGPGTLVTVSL VL: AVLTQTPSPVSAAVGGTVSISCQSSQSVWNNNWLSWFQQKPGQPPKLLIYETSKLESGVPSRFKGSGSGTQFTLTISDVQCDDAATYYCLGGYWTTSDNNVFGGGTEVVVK , and I need its recorded A450.
**Result** 0.052
